Experiment: Pharmacokinetic study in rats (oral gavage and tail vein injection, plasma LC-MS/MS)
Assay type: in vivo
Settings: male, rat, SD rats, Iv, 0.63 mg/kg
metric_name: AUC(0-t)

Q: Output AUC(0-t) of Cc1nc(-c2nnn(C)c2NC(=O)O[C@H](C)C(F)(F)C(C)C)ccc1C#CC1(CC(=O)O)CC1
A: 1200 to 3000 ng·h/mL

###

Molecular target: LPAR1 receptor (Homo sapiens)
Construct: expressed in transfected cells
Sequence (Q92633 whole entry): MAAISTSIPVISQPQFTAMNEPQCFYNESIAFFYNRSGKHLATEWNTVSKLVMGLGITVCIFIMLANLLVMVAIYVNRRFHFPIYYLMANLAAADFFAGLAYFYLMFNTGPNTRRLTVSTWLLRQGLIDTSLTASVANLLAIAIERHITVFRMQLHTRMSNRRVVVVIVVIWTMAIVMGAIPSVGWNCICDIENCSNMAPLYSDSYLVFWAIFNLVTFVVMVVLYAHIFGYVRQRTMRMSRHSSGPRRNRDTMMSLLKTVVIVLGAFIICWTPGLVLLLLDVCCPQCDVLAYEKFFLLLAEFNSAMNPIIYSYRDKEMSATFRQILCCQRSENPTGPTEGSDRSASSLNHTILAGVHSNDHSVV
Test: LPAR1 in vitro biological activity evaluation 2: HTRF cAMP kit (LANCE Ultra cAMP Kit) assay in CHO stable transfected cell line expressing the LPAR1 receptor
Assay type: cell-based
Settings: Table 2, read-out: LPAR1 inhibitory activity IC50
Each entry below carries its recorded IC50.
Answer format: numeric, µM implied, no suffix.

Answered examples (3):
Q: Output IC50 of CCC(F)(F)[C@@H](C)OC(=O)Nc1c(-c2ccc(C#CC3(CC(=O)O)CC(OC)C3)c(F)n2)noc1C (stereo partly shown)
A: 0.0271

Q: Output IC50 of CCC[C@@H](C)OC(=O)Nc1c(-c2ccc(C#CC3(P(=O)(O)O)CC4(CC4)C3)c(C)n2)nnn1C
A: 0.0321

Q: Output IC50 of CCC[C@@H](C)OC(=O)Nc1c(-c2ccc(C#CC3(CC(=O)O)CC(OC)C3)c(C)n2)nnn1C (stereo partly shown) [compound 278]
A: 0.0344

Now for the molecule whose IC50 we want.
Q: Output IC50 of CCC(F)(F)[C@@H](C)OC(=O)Nc1c(-c2ccc(C#CC3(CC(=O)O)CCC3)c(C)n2)nnn1C
A: 0.0148
